Listed compounds paired with reported Log sweet/bitter
# Species: Homo sapiens
# assay notes: Taste quality
# Format: functional

| compound | Log sweet/bitter |
| --- | --- |
| COCC(C)(O)C1CC=C(/C=N/O)CC1 (stereo not given) | -1.05 |
| COCC1CC=C(/C=N/O)CC1 (stereo not given) | 0.38 |
| COCC1=CCC(/C=N/O)=CC1 | 1.65 |
| COC(C)C1CC=C(/C=N/O)CC1 (stereo not given) | 0.4 |
| C=CC1C=C(/C=N/O)CCC1 (stereo not given) | -0.39 |
| COC1CC=C(/C=N/O)CC1 (stereo not given) | 0.21 |
| CCOC1CC=C(/C=N/O)CC1 (stereo not given) | 0.21 |
| CC(C)(OCC(=O)O)C1CC=C(/C=N/O)CC1 (stereo not given) | 0.15 |
| C=C(C)C1CC=C(/C=N/O)CC1 (stereo not given) | 0.38 |
| COCC1CCC=C1/C=N/O (stereo not given) | -0.12 |
| CC1CC=C(/C=N/O)CC1 (stereo not given) | -0.1 |
| COC(C)C1CCC=C(/C=N/O)C1 (stereo not given) | -1.4 |
| COC(C)C1=CCC(/C=N/O)=CC1 (stereo not given) | 1.96 |
| CC(=O)C1CC=C(/C=N/O)CC1 (stereo not given) | 0.22 |
| CC(O)(CO)C1CC=C(/C=N/O)CC1 (stereo not given) | -1.15 |

----------
Listed compounds paired with reported Log sweet/bitter
# Species on record: Homo sapiens
# assay notes: Taste quality
# Assay type: functional

| compound | Log sweet/bitter |
| --- | --- |
| COC(C)(CO)C1CC=C(/C=N/O)CC1 (configuration not stated) | -1.4 |
| COC(C)C1=CC=C(/C=N/O)CC1 (configuration not stated) | 0.97 |
| COCC1CC=C(/C=N/O)C1 (configuration not stated) | 0.64 |
| C=CC1CC=C(/C=N/O)CC1 (configuration not stated) | 0.7 |
| CC1=CCC(/C=N/O)=CC1 | 1.42 |
| CC1=CC=C(/C=N/O)CC1 | 0.23 |
| CC(C)C1=CCC(/C=N/O)=CC1 | -0.07 |
